- Tested on: 755483-174-R-J1-PDC complex spheroid growth, percent test/control
- assay_comment: Anticancer human tumor 755483-174-R-J1-PDC patient-derived rhabdomyosarcoma cell line growth inhibition [Asc]
- condition_set: second compound 1 µM; first compound 0.316 µM; stronger effect = lower value
Reported viability, T/C by item:
Numbers only; they are read as %.

[
  {
    "compound": "C=C(F)C(=O)N1CCN(c2nc(OCC3CCCN3C)nc3c2CCN(c2cccc4cccc(Cl)c24)C3)CC1CC#N (configuration not stated) + CNC(C)C(=O)NC1CN(S(=O)(=O)c2cccc(S(=O)(=O)N3CCC4CCC(C(=O)NC(c5ccccc5)c5ccccc5)N4C(=O)C(NC(=O)C(C)NC)C3)c2)CCC2CCC(C(=O)NC(c3ccccc3)c3ccccc3)N2C1=O",
    "value_type": "viability, T/C",
    "readout_unit": "%",
    "result": 21.6
  }
]

// moving on: another record for viability, T/C
Quick note, viability, T/C for O=C(c1ccc(F)c(F)c1Nc1ccc(I)cc1F)N1CC(O)([C@@H]2CCCCN2)C1 + CNC(C)C(=O)NC1CN(S(=O)(=O)c2cccc(S(=O)(=O)N3CCC4CCC(C(=O)NC(c5ccccc5)c5ccccc5)N4C(=O)C(NC(=O)C(C)NC)C3)c2)CCC2CCC(C(=O)NC(c3ccccc3)c3ccccc3)N2C1=O landed at 17.1

====

The entries below come with measured viability, T/C values attached.
- System: 755483-174-R-J1-PDC complex spheroid growth, percent test/control
- assay_comment: Anticancer human tumor 755483-174-R-J1-PDC cell line growth inhibition [Asc];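 further: spheroids exposed to compounds for seven days before readout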
- condition_set: second compound 0.03 µM; first compound 0.0316 µM; stronger effect = lower value

// solved cases for viability, T/C follow
[
  {
    "molecule": "C#Cc1c(F)ccc2cc(O)cc(-c3ncc4c(N5CC6CCC(C5)N6)nc(OCC56CCCN5CC(F)C6)nc4c3F)c12 (stereo not given) + CCN1C(C(=O)NC23CCC(C(=O)O)(CC2)CC3)C(c2cccc(Cl)c2F)C2(C(=O)Nc3cc(Cl)ccc32)C12CCCCC2",
    "study_target": "755483-174-R-J1-PDC complex spheroid growth, percent test/control",
    "viability, T/C": "90.5%"
  },
  {
    "molecule": "COc1c(OCCCN2CCOCC2)ccc2c3n(c(=NC(=O)c4cnc(N)nc4)nc12)CCN3 + CCN1C(C(=O)NC23CCC(C(=O)O)(CC2)CC3)C(c2cccc(Cl)c2F)C2(C(=O)Nc3cc(Cl)ccc32)C12CCCCC2",
    "study_target": "755483-174-R-J1-PDC complex spheroid growth, percent test/control",
    "viability, T/C": "49.1%"
  }
]

Consider O=C(c1cc(Cc2n[nH]c(=O)c3ccccc23)ccc1F)N1CCN(C(=O)C2CC2)CC1 + CCN1C(C(=O)NC23CCC(C(=O)O)(CC2)CC3)C(c2cccc(Cl)c2F)C2(C(=O)Nc3cc(Cl)ccc32)C12CCCCC2 . Its measured viability, T/C is 58.3%

For this molecule ( C=CC(=O)N1CCN(c2nc(=O)n(-c3c(C)ccnc3C(C)C)c3nc(-c4c(O)cccc4F)c(F)cc23)C(C)C1 (stereo not given) + CCN1C(C(=O)NC23CCC(C(=O)O)(CC2)CC3)C(c2cccc(Cl)c2F)C2(C(=O)Nc3cc(Cl)ccc32)C12CCCCC2 ), measured viability, T/C is 92.4%

GET /value?item= CNC(C)C(=O)NC1CN(S(=O)(=O)c2cccc(S(=O)(=O)N3CCC4CCC(C(=O)NC(c5ccccc5)c5ccccc5)N4C(=O)C(NC(=O)C(C)NC)C3)c2)CCC2CCC(C(=O)NC(c3ccccc3)c3ccccc3)N2C1=O (stereo not given) + CCN1C(C(=O)NC23CCC(C(=O)O)(CC2)CC3)C(c2cccc(Cl)c2F)C2(C(=O)Nc3cc(Cl)ccc32)C12CCCCC2 &field=viability, T/C returns 51.9%

====

- System: 755483-174-R-J1-PDC complex spheroid growth, percent test/control
- assay_comment: Anticancer human tumor 755483-174-R-J1-PDC cell line growth inhibition [Asc];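 further: spheroids exposed to compounds for seven days before readout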
- condition_set: curve of first compound; second compound 0.1 µM
- Excerpt: Multicellular complex tumor spheroid response to apoptosis pathway targeting inhibitors Alrizomadlin, Pelcitoclax, and Dasminapant in combination with a variety of drugs and investigational agents in selected tumor cell lines […] Compounds. […] If the clinical Cmax for an agent had not been determined, the highest concentration tested was 10 microM. […]
Overview of recorded IC50 for various compounds
Give just the numeric value; nM need not be written.

[
  {
    "compound": "CCN1C(C(=O)NC23CCC(C(=O)O)(CC2)CC3)C(c2cccc(Cl)c2F)C2(C(=O)Nc3cc(Cl)ccc32)C12CCCCC2 (stereo not given) + Cc1c(S(C)(=O)=O)c(-c2cc(F)cc(N3CCN(c4ccc(NS(=O)(=O)c5ccc(NC(CCN6CCC(C(=O)OCCCP(=O)(O)O)CC6)CSc6ccccc6)c(S(=O)(=O)C(F)(F)F)c5)cc4)CC3)c2)c(-c2ccc(Cl)cc2)n1C(C)C",
    "value_type": "IC50",
    "result": 1740
  }
]

Okay, now this compound:
IC50 on 755483-174-R-J1-PDC complex spheroid growth, percent test/control for Cn1ncnc1[C@H]1c2n[nH]c(=O)c3cc(F)cc(c23)N[C@@H]1c1ccc(F)cc1 + Cc1c(S(C)(=O)=O)c(-c2cc(F)cc(N3CCN(c4ccc(NS(=O)(=O)c5ccc(NC(CCN6CCC(C(=O)OCCCP(=O)(O)O)CC6)CSc6ccccc6)c(S(=O)(=O)C(F)(F)F)c5)cc4)CC3)c2)c(-c2ccc(Cl)cc2)n1C(C)C is 1.85

====

- Test system: 755483-174-R-J1-PDC complex spheroid growth, percent test/control
- assay_comment: Anticancer human tumor 755483-174-R-J1-PDC cell line growth inhibition [Asc];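 further: spheroids exposed to compounds for seven days before readout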
- condition_set: second compound 0.0316 µM; first compound 0.00316 µM; stronger effect = lower value
value_type: viability, T/C (%)
// return numeric value only (unit: %, not printed)

[
  {
    "molecule": "NC1CCC(NC2CC2c2ccccc2)CC1 (configuration not stated) + CNC(C)C(=O)NC1CN(S(=O)(=O)c2cccc(S(=O)(=O)N3CCC4CCC(C(=O)NC(c5ccccc5)c5ccccc5)N4C(=O)C(NC(=O)C(C)NC)C3)c2)CCC2CCC(C(=O)NC(c3ccccc3)c3ccccc3)N2C1=O",
    "study_target": "755483-174-R-J1-PDC complex spheroid growth, percent test/control",
    "result": 31.8
  }
]

The molecule COc1c(OCCCN2CCOCC2)ccc2c3n(c(=NC(=O)c4cnc(N)nc4)nc12)CCN3 + CNC(C)C(=O)NC1CN(S(=O)(=O)c2cccc(S(=O)(=O)N3CCC4CCC(C(=O)NC(c5ccccc5)c5ccccc5)N4C(=O)C(NC(=O)C(C)NC)C3)c2)CCC2CCC(C(=O)NC(c3ccccc3)c3ccccc3)N2C1=O showed viability, T/C equal to 41.9

====

- System: 755483-174-R-J1-PDC complex spheroid growth, percent test/control
- assay_comment: Anticancer human tumor 755483-174-R-J1-PDC cell line growth inhibition [Asc];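 further: spheroids exposed to compounds for seven days before readout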
- condition_set: second compound 0.1 µM; first compound 0.1 µM; stronger effect = lower value
Below, each of the compounds is paired with its reported viability, T/C value.
Just the number please, in %, no unit attached.

See these solved cases before continuing.
[
  {
    "compound": "COc1c(OCCCN2CCOCC2)ccc2c3n(c(=NC(=O)c4cnc(N)nc4)nc12)CCN3 + CNC(C)C(=O)NC1CN(S(=O)(=O)c2cccc(S(=O)(=O)N3CCC4CCC(C(=O)NC(c5ccccc5)c5ccccc5)N4C(=O)C(NC(=O)C(C)NC)C3)c2)CCC2CCC(C(=O)NC(c3ccccc3)c3ccccc3)N2C1=O",
    "readout_unit": "%",
    "viability, T/C": 11.6
  },
  {
    "compound": "C=CC(=O)N1CCN(c2nc(=O)n(-c3c(C)ccnc3C(C)C)c3nc(-c4c(O)cccc4F)c(F)cc23)C(C)C1 (stereo not drawn) + CNC(C)C(=O)NC1CN(S(=O)(=O)c2cccc(S(=O)(=O)N3CCC4CCC(C(=O)NC(c5ccccc5)c5ccccc5)N4C(=O)C(NC(=O)C(C)NC)C3)c2)CCC2CCC(C(=O)NC(c3ccccc3)c3ccccc3)N2C1=O",
    "readout_unit": "%",
    "viability, T/C": 54.7
  }
]

Now, please, on to the next compound.
So the reported viability, T/C for CCN1CCN(Cc2ccc(Nc3ncc(F)c(-c4cc(F)c5nc(C)n(C(C)C)c5c4)n3)nc2)CC1 + CNC(C)C(=O)NC1CN(S(=O)(=O)c2cccc(S(=O)(=O)N3CCC4CCC(C(=O)NC(c5ccccc5)c5ccccc5)N4C(=O)C(NC(=O)C(C)NC)C3)c2)CCC2CCC(C(=O)NC(c3ccccc3)c3ccccc3)N2C1=O , on 755483-174-R-J1-PDC complex spheroid growth, percent test/control, turned out to be 59.5
